Tested on: Antibiotic-resistant staphylococcal, enterococcal, enterobacterial or acinetobacter isolates
assay remarks: Broth micro-dilution assay in clinical patient isolates, compound in combination with tetracyclines
Assay type: cell-based
condition details: 4 μg/ml tetracyclines and 10 μg/ml compound; OD610 16 to 20 hours after inoculation, normalized to DMSO control (100%)
Each record gets a class by Growth (% rel. to DMSO): low band = under 20%, middle band = from 20% up to 60%, high band = 60% and over

>>> df
                                    molecule        group
 0  O=C(NCC1CCCCC1)C1CCc2c(O)ccc(O)c2C1 (stereo not drawn)     low band
 1  O=C(NCc1ccccc1)C1CCc2c(O)ccc(O)c2C1 (stereo not drawn)  middle band
 2          CC(C)C(=O)NCc1cccc(-c2ccccc2)c1O     low band
 3           CCCCC(=O)Nc1ccccc1Oc1ccc(Cl)cc1     low band
 4           O=C(NCc1cc(O)ccc1O)c1cc(F)ccc1F    high band
 5           CCCCC(=O)NCc1ccc(-c2ccccc2)cc1O     low band
 6        CCC(=O)NCc1cc(OC)c(-c2ccccc2)cc1OC     low band
 7     O=C(CCc1ccccc1)Nc1ccccc1Oc1ccc(Cl)cc1     low band
 8  COc1ccc(OC)c2c1CCC(C(=O)NCC(C)C)C2 (stereo not drawn)    high band
 9  O=C(Nc1nnc(-c2ccc(O)cc2)s1)C1CCc2c(O)ccc(O)c2C1 (stereo not drawn)  middle band
10  COc1ccc(OC)c2c1CCCC2C(=O)NCC(C)C (stereo not drawn)    high band
11           O=C(NCc1cc(O)ccc1O)c1cc(F)ccc1O  middle band
12  O=C(NCCCc1ccccc1)C1CCc2c(O)ccc(O)c2C1 (stereo not drawn)     low band
13              O=C(NCCc1cc(O)ccc1O)c1ccccc1  middle band
14  O=C(NCc1cc(F)ccc1O)C1CCc2c(O)ccc(O)c2C1 (stereo not drawn)    high band
15  O=C(NCc1cc(C(F)(F)F)cc(C(F)(F)F)c1)C1CCc2c(O)ccc(O)c2C1 (stereo not drawn)    high band
16     O=C(NCc1cc(O)ccc1O)c1ccc(C(F)(F)F)cc1  middle band
17  O=C(NCc1cc(O)ccc1O)c1cc(C(F)(F)F)cc(C(F)(F)F)c1  middle band
18         O=C(NCc1cc(O)ccc1O)c1cc(F)cc(F)c1  middle band

From: patent US9682079B2
